# Test system: Choline Acetyltransferase (ChAT) mRNA
# measurement_protocol: Measurement of choline acetyltransferase (ChAT) mRNA expression levels in the rat septal area
# Assay type: in vivo
# measurement_setup: po, 3 mg/kg orally, SD male rats, medial septum, 24 hours after administration, read-out: Amount (%) increased from the amount of ChAT mRNA expression levels in the vehicle administration group
Decide using change in vivo at 3 mg/kg: a value greater than or equal to 70% is MET, a smaller one is NOT MET.

Evaluate CN1Cc2nc3c(oc4ccccc43)c(=O)n2[C@@H]2CN(CCF)C[C@H]2C1=O (relative stereo) [Example 17] : change in vivo at 3 mg/kg at minimum 70%?
NOT MET

Evaluate CN1Cc2nc3sc4c(c3c(=O)n2[C@@H]2CCC[C@@H]2C1=O)CCN(CC(F)F)C4 [Example 7] : change in vivo at 3 mg/kg at minimum 70%?
MET

Evaluate COCCN1CCc2c(sc3nc4n(c(=O)c23)[C@H]2CCC[C@@H]2C(=O)N(C)C4)C1 [Example 16] : change in vivo at 3 mg/kg at minimum 70%?
NOT MET

Evaluate CN1Cc2nc3c(oc4cc(C(F)F)ccc43)c(=O)n2[C@@H]2CCC[C@@H]2C1=O [Example 9] : change in vivo at 3 mg/kg at minimum 70%?
MET

Evaluate CN1CCc2c(sc3nc4n(c(=O)c23)C(C)(C)CC(=O)N2CCCC42)C1 (single isomer, unassigned; (+)) [Example 2] : change in vivo at 3 mg/kg at minimum 70%?
NOT MET
